biological target: PBP1a/1b (Bacillus subtilis); assay: Fluorescent whole cell β-lactam titration with Boc-FL readout, SDS-PAGE
Sequence (P39793 77-662): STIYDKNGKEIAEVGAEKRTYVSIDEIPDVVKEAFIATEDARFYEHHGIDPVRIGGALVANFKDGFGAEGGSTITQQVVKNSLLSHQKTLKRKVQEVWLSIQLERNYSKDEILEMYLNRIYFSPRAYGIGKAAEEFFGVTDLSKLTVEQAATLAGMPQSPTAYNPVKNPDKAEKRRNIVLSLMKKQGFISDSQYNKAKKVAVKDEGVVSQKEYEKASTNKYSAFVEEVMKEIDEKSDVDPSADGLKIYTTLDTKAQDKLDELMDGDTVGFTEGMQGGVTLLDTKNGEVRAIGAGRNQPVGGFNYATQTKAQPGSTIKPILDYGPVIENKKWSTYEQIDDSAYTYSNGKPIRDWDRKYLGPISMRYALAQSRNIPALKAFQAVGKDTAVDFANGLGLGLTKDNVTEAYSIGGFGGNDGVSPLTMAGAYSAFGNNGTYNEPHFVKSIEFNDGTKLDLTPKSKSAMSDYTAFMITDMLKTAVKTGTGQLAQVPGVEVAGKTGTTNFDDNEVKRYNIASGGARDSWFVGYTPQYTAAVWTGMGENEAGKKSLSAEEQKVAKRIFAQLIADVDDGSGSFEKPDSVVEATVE
Some molecules, each annotated with its measured IC50.
Answer format: numeric, µM implied, no suffix.

| molecule | reportedValue |
| --- | --- |
| NC(=O)c1cc[n+](CC2=C(C(=O)O)N3C(=O)[C@@H](NC(=O)[C@@H](c4ccccc4)S(=O)(=O)[O-])[C@H]3SC2)cc1 [cefsulodin] | 0.0184 |
| CO/N=C(\C(=O)N[C@@H]1C(=O)N2C(C(=O)O)=C(CSc3nc(=O)c(=O)[nH]n3C)CS[C@H]12)c1csc(N)n1 [ceftriaxone] | 0.0135 |
| CO/N=C(\C(=O)N[C@@H]1C(=O)N2C(C(=O)O)=C(COC(N)=O)CS[C@H]12)c1ccco1 [cefuroxime] | 0.00424 |

Recorded IC50 for CO/N=C(\C(=O)N[C@@H]1C(=O)N2C(C(=O)O)=C(COC(C)=O)CS[C@H]12)c1csc(N)n1 [cefotaxime] on PBP1a/1b (Bacillus subtilis) was 0.00285

// molecule CO[C@@]1(NC(=O)Cc2cccs2)C(=O)N2C(C(=O)O)=C(COC(N)=O)CS[C@@H]21 [cefoxitin] , assay PBP1a/1b (Bacillus subtilis), IC50 value: 0.0328

* * *

biological target: PBP3 (Bacillus subtilis, UniProt P42971); assay: Fluorescent whole cell β-lactam titration with Boc-FL readout, SDS-PAGE; assay type: cell-based; conditions: IC50 PBP3, B. subtilis PY79 whole cells; average of two experiments
Sequence (P42971 whole entry): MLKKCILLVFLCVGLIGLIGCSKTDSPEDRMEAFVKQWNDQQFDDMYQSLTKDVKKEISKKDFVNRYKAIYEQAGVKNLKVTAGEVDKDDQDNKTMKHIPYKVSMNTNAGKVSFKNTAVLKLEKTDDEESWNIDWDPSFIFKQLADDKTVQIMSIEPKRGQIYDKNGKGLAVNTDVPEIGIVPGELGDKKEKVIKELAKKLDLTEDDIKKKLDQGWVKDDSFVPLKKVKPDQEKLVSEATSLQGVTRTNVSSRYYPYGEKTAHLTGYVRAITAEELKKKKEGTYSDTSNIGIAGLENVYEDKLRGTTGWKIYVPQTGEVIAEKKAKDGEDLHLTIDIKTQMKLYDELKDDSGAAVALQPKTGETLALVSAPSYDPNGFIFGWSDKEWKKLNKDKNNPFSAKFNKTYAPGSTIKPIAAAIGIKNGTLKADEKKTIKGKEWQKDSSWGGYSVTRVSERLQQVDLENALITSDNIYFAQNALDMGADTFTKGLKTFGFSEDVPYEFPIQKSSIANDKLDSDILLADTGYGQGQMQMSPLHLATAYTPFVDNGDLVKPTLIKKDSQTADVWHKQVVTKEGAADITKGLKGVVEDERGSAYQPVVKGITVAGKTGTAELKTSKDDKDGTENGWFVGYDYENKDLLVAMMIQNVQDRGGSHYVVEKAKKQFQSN
List of log10 IC50 values.
Would you kindly interpret these values as log10 of IC50 expressed in µM?

Answered examples (6):
| molecularString | endpointName | reportedValue |
| --- | --- | --- |
| CC1(C)S[C@@H]2[C@H](/N=C/N3CCCCCC3)C(=O)N2[C@H]1C(=O)O | log10 IC50 | 2.44 |
| CO/N=C(\C(=O)N[C@@H]1C(=O)N2C(C(=O)O)=C(CSc3nc(=O)c(=O)[nH]n3C)CS[C@H]12)c1csc(N)n1 | log10 IC50 | 0.67 |
| CC1(C)S[C@@H]2[C@H](NC(=O)[C@H](N)c3ccccc3)C(=O)N2[C@H]1C(=O)O | log10 IC50 | -0.92 |
| C[C@@H](O)[C@H]1C(=O)N2C(C(=O)O)=C([C@H]3CCCO3)S[C@H]12 | log10 IC50 | 0.52 |
| C[C@@H](O)[C@H]1C(=O)N2C(C(=O)O)=C(S[C@@H]3CN[C@H](CNS(N)(=O)=O)C3)[C@H](C)[C@H]12 | log10 IC50 | -0.55 |
| C[C@@H](O)[C@H]1C(=O)N2C(C(=O)O)=C(S[C@@H]3CN[C@H](C(=O)N(C)C)C3)[C@H](C)[C@H]12 | log10 IC50 | -0.17 |

# next molecule below
CC1(C)S[C@@H]2[C@H](NC(=O)COc3ccccc3)C(=O)N2[C@H]1C(=O)O tested on PBP3 (Bacillus subtilis, UniProt P42971) gave log10 IC50: 0.76

* * *

molecular target: PBP4 (Bacillus subtilis, UniProt P40750); experiment: Fluorescent whole cell β-lactam titration with Boc-FL readout, SDS-PAGE
Sequence (P40750 22-624): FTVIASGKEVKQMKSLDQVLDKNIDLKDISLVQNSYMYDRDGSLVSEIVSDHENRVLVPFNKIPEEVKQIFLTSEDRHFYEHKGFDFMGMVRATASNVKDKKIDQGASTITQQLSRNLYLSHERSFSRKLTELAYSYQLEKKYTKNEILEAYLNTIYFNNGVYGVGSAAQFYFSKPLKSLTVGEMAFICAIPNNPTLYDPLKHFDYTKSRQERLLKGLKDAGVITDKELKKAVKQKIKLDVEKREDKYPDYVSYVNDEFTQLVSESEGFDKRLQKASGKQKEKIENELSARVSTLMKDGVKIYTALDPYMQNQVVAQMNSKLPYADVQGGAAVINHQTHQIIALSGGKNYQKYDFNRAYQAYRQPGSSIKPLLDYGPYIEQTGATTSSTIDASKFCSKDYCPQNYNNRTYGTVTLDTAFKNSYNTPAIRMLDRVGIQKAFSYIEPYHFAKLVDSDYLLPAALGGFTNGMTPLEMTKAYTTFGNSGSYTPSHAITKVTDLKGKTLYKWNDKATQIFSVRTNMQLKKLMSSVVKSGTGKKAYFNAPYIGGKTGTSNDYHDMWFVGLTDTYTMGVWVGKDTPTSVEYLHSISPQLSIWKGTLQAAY
endpointName: pIC50
Reminder that pIC50 is minus the log10 of a molar concentration.

| molecularString | pIC50 |
| --- | --- |
| CC(=O)OCC1=C(C(=O)O)N2C(=O)[C@@H](NC(=O)Cc3cccs3)[C@H]2SC1 | 7.82 |
| CO/N=C(\C(=O)N[C@@H]1C(=O)N2C(C(=O)O)=C(COC(N)=O)CS[C@H]12)c1ccco1 | 7.45 |

Attention now shifts to the item below.
Field pIC50 (entry C[C@@H](O)[C@H]1C(=O)N2C(C(=O)O)=C([C@H]3CCCO3)S[C@H]12 ) reads 7.50

* * *

molecular target: PBP5 (Bacillus subtilis, UniProt P08750); experiment: Fluorescent whole cell β-lactam titration with Boc-FL readout, SDS-PAGE; assay type: cell-based
Sequence (P08750 32-443): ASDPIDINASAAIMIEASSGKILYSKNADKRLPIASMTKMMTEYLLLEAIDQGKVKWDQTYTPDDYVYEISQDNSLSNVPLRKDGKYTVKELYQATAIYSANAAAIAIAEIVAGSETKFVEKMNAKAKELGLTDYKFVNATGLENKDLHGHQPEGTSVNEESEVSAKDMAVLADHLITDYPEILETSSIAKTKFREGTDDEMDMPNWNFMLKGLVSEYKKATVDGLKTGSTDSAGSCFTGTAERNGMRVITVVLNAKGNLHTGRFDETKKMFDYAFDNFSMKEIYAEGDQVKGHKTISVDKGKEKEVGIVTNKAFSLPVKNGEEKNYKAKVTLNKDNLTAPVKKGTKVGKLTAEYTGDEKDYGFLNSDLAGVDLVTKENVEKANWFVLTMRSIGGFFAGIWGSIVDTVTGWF
endpointName: pIC50
The quantity pIC50 is defined as the negative base-10 logarithm of the molar concentration.

Use the examples below as a reference point.
| molecularString | pIC50 |
| --- | --- |
| C[C@@H](O)[C@H]1C(=O)N2C(C(=O)O)=C(S[C@@H]3CN[C@H](C(=O)N(C)C)C3)[C@H](C)[C@H]12 | 6.24 |
| CC1(C)S[C@@H]2[C@H](NC(=O)COc3ccccc3)C(=O)N2[C@H]1C(=O)O | 5.75 |
| CC1(C)S[C@@H]2[C@H](NC(=O)[C@H](N)c3ccccc3)C(=O)N2[C@H]1C(=O)O | 6.46 |

Please look at the following compound next.
Recorded pIC50 (compound CC1(C)S[C@@H]2[C@H](NC(=O)[C@H](N)c3ccc(O)cc3)C(=O)N2[C@H]1C(=O)O ): 5.52

* * *

target: PBP3 (Bacillus subtilis); test: Fluorescent whole cell β-lactam titration with Boc-FL readout, SDS-PAGE; type: cell-based; conditions: IC50 PBP3, B. subtilis PY79 whole cells; average of two experiments
pIC50: −log10 of the molar value.
Could you please classify the records by pIC50 using these ranges: bin 0 (below 4), bin 1 (4 to below 5), bin 2 (5 or more)

For orientation, consider the following solved cases.
| molecularString | targetOfAssay | label |
| --- | --- | --- |
| CCN1CCN(C(=O)N[C@@H](C(=O)N[C@@H]2C(=O)N3[C@@H]2SC(C)(C)[C@@H]3C(=O)O)c2ccccc2)C(=O)C1=O | PBP3 (Bacillus subtilis) | bin 2 |
| CO[C@@]1(NC(=O)Cc2cccs2)C(=O)N2C(C(=O)O)=C(COC(N)=O)CS[C@@H]21 | PBP3 (Bacillus subtilis) | bin 2 |

IN: Entry Cc1onc(-c2ccccc2)c1C(=O)N[C@@H]1C(=O)N2[C@@H]1SC(C)(C)[C@@H]2C(=O)O belongs to which category?
OUT: bin 0

IN: Hello team, could you let me know which band the following molecule falls into: CO/N=C(\C(=O)N[C@@H]1C(=O)N2C(C(=O)O)=C(COC(C)=O)CS[C@H]12)c1csc(N)n1
OUT: bin 2

IN: Quick check: band for CC1(C)S[C@@H]2[C@H](NC(=O)[C@H](N)c3ccc(O)cc3)C(=O)N2[C@H]1C(=O)O
OUT: bin 2

IN: Could you place CC(=O)OCC1=C(C(=O)O)N2C(=O)[C@@H](NC(=O)Cc3cccs3)[C@H]2SC1 in its proper category? Many thanks.
OUT: bin 1

IN: // return the class label for CC1=C(C(=O)O)N2C(=O)[C@@H](NC(=O)[C@H](N)c3ccccc3)[C@H]2SC1
OUT: bin 1

IN: Which category fits this record: CC1(C)S[C@@H]2[C@H](NC(=O)Cc3ccccc3)C(=O)N2[C@H]1C(=O)O
OUT: bin 2

* * *

target: PBP2b/H (Bacillus subtilis); assay: Fluorescent whole cell β-lactam titration with Boc-FL readout, SDS-PAGE; assay type: cell-based
endpointName: IC50

Here is how some molecules turned out for IC50.
| molecule | IC50 |
| --- | --- |
| CC1=C(C(=O)O)N2C(=O)[C@@H](NC(=O)[C@H](N)c3ccccc3)[C@H]2SC1 [cephalexin] | < 0.288 µM |
| CC1(C)S[C@@H]2[C@H](N)C(=O)N2[C@H]1C(=O)O [6-APA, 6-Aminopenicillanic acid] | > 4620 µM |

Lab note: next molecule to report on.
Record COc1cccc(OC)c1C(=O)N[C@@H]1C(=O)N2[C@@H]1SC(C)(C)[C@@H]2C(=O)O [methicillin] . Reported IC50: < 0.263 µM

* * *

target: PBP4 (Bacillus subtilis); assay: Fluorescent whole cell β-lactam titration with Boc-FL readout, SDS-PAGE
endpointName: IC50

| compound | IC50 |
| --- | --- |
| CC1(C)S[C@@H]2[C@H](NC(=O)COc3ccccc3)C(=O)N2[C@H]1C(=O)O [penicillin V] | < 0.0285 µM |
| CO/N=C(\C(=O)N[C@@H]1C(=O)N2C(C(=O)O)=C(COC(C)=O)CS[C@H]12)c1csc(N)n1 [cefotaxime] | < 0.22 µM |

Notebook: CC1(C)S[C@@H]2[C@H](N)C(=O)N2[C@H]1C(=O)O [6-APA, 6-Aminopenicillanic acid] , IC50 read as > 4620 µM

// field: IC50; key: C[C@@H](O)[C@H]1C(=O)N2C(C(=O)O)=C(S[C@@H]3CN[C@H](CNS(N)(=O)=O)C3)[C@H](C)[C@H]12 [doripenem] ; value = > 2380 µM

* * *

target: PBP2b/H (Bacillus subtilis, UniProt Q07868); assay: Fluorescent whole cell β-lactam titration with Boc-FL readout, SDS-PAGE
Sequence (Q07868 whole entry): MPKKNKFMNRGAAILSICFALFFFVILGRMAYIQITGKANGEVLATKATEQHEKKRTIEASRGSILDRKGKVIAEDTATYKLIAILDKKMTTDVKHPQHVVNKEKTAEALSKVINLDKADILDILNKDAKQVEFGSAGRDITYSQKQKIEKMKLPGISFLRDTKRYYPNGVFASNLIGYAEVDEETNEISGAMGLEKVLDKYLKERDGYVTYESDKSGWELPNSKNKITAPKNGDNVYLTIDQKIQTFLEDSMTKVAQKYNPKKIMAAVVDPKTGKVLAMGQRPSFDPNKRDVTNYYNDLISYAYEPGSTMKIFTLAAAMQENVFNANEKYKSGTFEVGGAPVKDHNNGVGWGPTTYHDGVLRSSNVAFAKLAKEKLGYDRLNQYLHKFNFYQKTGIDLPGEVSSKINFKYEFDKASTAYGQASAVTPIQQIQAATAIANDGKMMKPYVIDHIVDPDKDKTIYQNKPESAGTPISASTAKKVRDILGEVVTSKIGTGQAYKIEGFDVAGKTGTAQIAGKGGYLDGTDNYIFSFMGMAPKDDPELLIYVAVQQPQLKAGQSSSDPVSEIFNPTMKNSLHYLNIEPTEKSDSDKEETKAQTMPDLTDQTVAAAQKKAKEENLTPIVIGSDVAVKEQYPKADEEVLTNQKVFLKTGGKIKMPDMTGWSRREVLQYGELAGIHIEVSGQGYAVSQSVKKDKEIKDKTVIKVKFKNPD
endpointName: IC50

Solved entries:
| molecule | targetOfAssay | IC50 |
| --- | --- | --- |
| CO/N=C(\C(=O)N[C@@H]1C(=O)N2C(C(=O)O)=C(COC(C)=O)CS[C@H]12)c1csc(N)n1 [cefotaxime] | PBP2b/H (Bacillus subtilis, UniProt Q07868) | < 220 nM |
| CC1(C)S[C@@H]2[C@H](NC(=O)COc3ccccc3)C(=O)N2[C@H]1C(=O)O [penicillin V] | PBP2b/H (Bacillus subtilis, UniProt Q07868) | < 28.5 nM |

Continue with the molecule presented below.
GET /value?item= CCN1CCN(C(=O)N[C@@H](C(=O)N[C@@H]2C(=O)N3[C@@H]2SC(C)(C)[C@@H]3C(=O)O)c2ccccc2)C(=O)C1=O [piperacillin] &field=IC50 returns < 1930 nM
